- Tested on: NQO1 specific enzyme activity in BEAS-2B cells (marker for NRF2 activation)
- PROTOCOL_NOTES: BEAS-2B NQO1 MTT Assay
- Format: cell-based
- PARTICULARS: Homo sapiens, BEAS-2B, 48 h, NQO1 specific activity induction, 48 hours with compound
# reported EC50; entries follow

COMPOUND	EC50
COCCn1cc(CO[C@H](c2ccc(C)c(CN(Cc3ccccn3)S(=O)(=O)c3cccc(C(=O)O)c3)c2)C(C)(C)C(=O)O)nn1 [Example 93]	100 to 1000 nM
COCCOCCn1cc(CO[C@@H](c2ccc(C)c(CN3C[C@@H](C)Oc4ccccc4S3(=O)=O)c2)C(C)(C)C(=O)O)nn1 [Example 71]	10 to 100 nM
Cc1ccc(C(OCc2cn(Cc3cccc(CN=[N+]=[N-])c3)nn2)C(C)(C)C(=O)O)cc1CN1C[C@@H](C)Oc2ccccc2S1(=O)=O (stereo partly drawn) [Example 3]	< 1 nM
COCCOCCn1cc(CO[C@H](c2ccc(C)c(CN3C[C@@H](C)Oc4ccccc4S3(=O)=O)c2)C(C)(C)C(=O)O)nn1 [Example 80]	1 to 10 nM
CCn1cc(COC(c2ccc(C)c(CN(C3CCCCC3)S(=O)(=O)c3cccc(OC)c3)c2)C(C)(C)C(=O)O)nn1 (stereo not drawn) [Example 96]	100 to 1000 nM
CCn1cc(CO[C@H](c2ccc(C)c(CN3C[C@H](C)Cc4ccncc4S3(=O)=O)c2)C(C)(C)C(=O)O)nn1 [Example 66]	100 to 1000 nM
